All values here come from patent US8975398B2.

- target.entity: NAMPT (Homo sapiens, UniProt P43490)
- Sequence (P43490 whole entry): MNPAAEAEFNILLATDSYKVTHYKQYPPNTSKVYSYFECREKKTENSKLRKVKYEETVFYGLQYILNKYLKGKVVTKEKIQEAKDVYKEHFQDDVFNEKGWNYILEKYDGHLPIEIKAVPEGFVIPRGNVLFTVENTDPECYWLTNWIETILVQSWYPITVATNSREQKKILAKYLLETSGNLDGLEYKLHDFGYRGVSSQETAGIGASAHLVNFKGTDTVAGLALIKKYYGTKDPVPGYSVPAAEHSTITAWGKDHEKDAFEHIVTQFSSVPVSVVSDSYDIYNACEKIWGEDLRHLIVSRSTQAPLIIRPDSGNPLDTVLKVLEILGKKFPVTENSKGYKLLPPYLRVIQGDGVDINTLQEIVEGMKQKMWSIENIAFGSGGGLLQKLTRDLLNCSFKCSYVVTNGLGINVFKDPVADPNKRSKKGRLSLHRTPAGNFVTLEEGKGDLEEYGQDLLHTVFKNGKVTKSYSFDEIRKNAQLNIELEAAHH
- method.description: Time-Resolved Fluorescence Resonance Energy Transfer (TR-FRET) Binding Assay of NAMPT with PRPP
- test.conditions: 2 nM NAMPT, 2 nM probe, 200 uM PRPP and 2.5 mM ATP, equilibrated 16 hours
result.type: IC50

molecule | IC50
CC[C@H](C)C(=O)N1CCC(Oc2ccc(NC(=O)C3CN(c4cccnn4)C3)cc2)CC1 [Example 212] | 0.787 nM
CC(C)CN1CCC(c2ccc(NC(=O)C3CN(c4cccnc4)C3)cc2)CC1 [Example 94] | 1.03 nM
O=C(Nc1ccc(C2CCN(C(=O)Cc3ccc(Cl)cc3)CC2)cc1)C1CN(c2cccnn2)C1 [Example 370] | 0.555 nM

Give NAMPT (Homo sapiens, UniProt P43490) IC50 for CCCN1CCC(Oc2ccc(NC(=O)C3CN(c4cccnc4)C3)cc2)CC1 [Example 81]
1.13 nM

Subsequent entry: O=C(Nc1ccc(OC2CCN(C(=O)c3ccccc3F)CC2)cc1)C1CN(c2cccnn2)C1 [Example 228]
0.911 nM

###

- target.entity: NAMPT (human, recombinant, C-terminally His-tagged) (Homo sapiens, UniProt P43490)
- Sequence (P43490 whole entry): as above
- method.description: Time-Resolved Fluorescence Resonance Energy Transfer (TR-FRET) Binding Assay of NAMPT
- test.conditions: 6.8 nM NAMPT, 200 nM probe, equilibrated 3 hours, absence of substrates
Binary label based on IC50 with cut-off 200 nM: below gives satisfied, not below gives not satisfied.

The examples below pair each entry with its known result.
smiles.entry | answer.label
Cc1ncccc1N1CC(C(=O)Nc2ccc(C3CCN(C(=O)CCC(F)(F)F)CC3)cc2)C1 | not satisfied
COCC(=O)N1CCC(Oc2ccc(NC(=O)C3CN(c4cccnc4)C3)cc2)CC1 | satisfied
Cc1ncccc1N1CC(C(=O)Nc2ccc(C3CCN(C(=O)c4cc(Cl)cc(Cl)c4)CC3)cc2)C1 | not satisfied
O=C(Nc1ccc(OC2CCN(C(=O)Cc3ccccc3F)CC2)cc1)C1CN(c2cccnn2)C1 | satisfied
CSCC(=O)N1CCC(c2ccc(NC(=O)C3CN(c4cccnn4)C3)cc2)CC1 | satisfied

Next up:
Strictly below 200 nM: is that where IC50 of "O=C(Nc1ccc(OC2CCN(C(=O)Cc3ccccc3F)CC2)cc1)C1CN(c2ccnnc2)C1" sits?
satisfied

###

Each entry below lists one item and its recorded IC50 value.
- System: PC3 cells
- method.description: NAMPT Cell Proliferation Assay (Cell Titer Glo; also performed in the presence of 0.3 mM nicotinamide mononucleotide)
- Assay type: cell-based
- test.conditions: Homo sapiens, PC-3, 120 h, 5 days incubation, cell viability by Cell Titer Glo
- Protocol: NAMPT Cell Proliferation Assay PC3 cells were seeded in 96-well black plates (Corning #3904) at 500 cells/well in 90 μl of RPMI media containing 10% heat-inactivated FBS and incubated overnight at 37° C. and 5% CO2 to allow cells to attach to wells. […] Cells were incubated for 5 days at 37° C. and 5% CO2, then cell viability was measured using Cell Titer Glo reagent (Promega #G7571). […]
Output spec: scalar in nM, unitless text.

smiles.entry | recorded.result
Cn1nc(C(F)(F)F)cc1-c1ccc(NC(=O)C2CN(c3cccnn3)C2)cc1 | 71.1
O=C(Nc1ccc(C2CCN(C(=O)CCC(F)(F)F)CC2)c(F)c1)C1CN(c2cccnn2)C1 | 30.9

Then there is this molecule:
GET /values?readout=IC50&item= "Cc1ccc(N2CC[C@H](C(=O)Nc3ccc(C4CCN(C(=O)C(C)(C)C)CC4)cc3)C2)nn1"
752

###

Assay read-out pIC50; system under study: NAMPT (Homo sapiens, UniProt P43490).
Keep it numeric: pIC50 is minus log10 of the concentration in mol/L.

Look over these answered cases.
compound | recorded.result
Cc1cc(C)cc(C(=O)N2CCC(c3ccc(NC(=O)C4CN(c5cccnn5)C4)cc3)CC2)c1 [Example 361] | 9.01
CCCN1CCC(c2ccc(NC(=O)C3CN(c4cccnc4)C3)cc2)CC1 [Example 95] | 8.99

GET /values?readout=pIC50&item= CCC(CC)CN1CCC(Oc2ccc(NC(=O)C3CN(c4cccnc4)C3)cc2)CC1 [Example 78]
9.20

Subsequent entry: COCC(=O)N1CCC(Oc2ccc(NC(=O)C3CN(c4cccnc4)C3)cc2)CC1 [Example 57]
8.97

###

- target.entity: NAMPT (human, recombinant, C-terminally His-tagged) (Homo sapiens)
- method.description: Time-Resolved Fluorescence Resonance Energy Transfer (TR-FRET) Binding Assay of NAMPT
- test.conditions: 6.8 nM NAMPT, 200 nM probe, equilibrated 3 hours, absence of substrates
Binary label based on IC50 with cut-off 90 nM: below gives 1 (yes), not below gives 0 (no).

smiles.entry | target.entity | answer.label
N#Cc1cccc(C(=O)N2CCC(c3ccc(NC(=O)C4CN(c5cccnn5)C4)cc3)CC2)c1 | NAMPT (human, recombinant, C-terminally His-tagged) (Homo sapiens) | 0 (no)

Strictly below 90 nM: is that where IC50 of "O=C(Nc1ccc(OC2CCN(C(=O)CC3CCCC3)CC2)cc1)C1CN(c2cccnc2)C1" sits?
1 (yes)

Subsequent entry: "CC(C)(C)C(=O)N1CCC(Oc2ccc(NC(=O)C3CN(c4cccnn4)C3)cc2)CC1"
0 (no)

Subsequent entry: "CCOCC(=O)N1CCC(c2ccc(NC(=O)C3CN(c4cccnc4)C3)cc2)CC1"
1 (yes)

Subsequent entry: "O=C(Nc1ccc(OC2CCN(C(=O)c3ccsc3)CC2)cc1)C1CN(c2cccnn2)C1"
0 (no)

###

- target.entity: NAMPT (human, recombinant, C-terminally His-tagged) (Homo sapiens, UniProt P43490)
- method.description: Time-Resolved Fluorescence Resonance Energy Transfer (TR-FRET) Binding Assay of NAMPT
- test.conditions: 6.8 nM NAMPT, 200 nM probe, equilibrated 3 hours, absence of substrates
result.type: log10 IC50 (log10 of the value in nM)
Base-10 log of IC50, unit nM.

compound | target.entity | log10 IC50
CC(C)(C)CN1CCC(Oc2ccc(NC(=O)C3CN(c4cccnc4)C3)cc2)CC1 [Example 79] | NAMPT (human, recombinant, C-terminally His-tagged) (Homo sapiens, UniProt P43490) | 3.43

GET /values?readout=log10 IC50&item= CC(C)C(C)C(=O)N1CCC(Oc2ccc(NC(=O)C3CN(c4cccnc4)C3)cc2)CC1 (stereo not drawn) [Example 70]
1.55

###

- target.entity: NAMPT (human, recombinant, C-terminally His-tagged) (Homo sapiens, UniProt P43490)
- method.description: Time-Resolved Fluorescence Resonance Energy Transfer (TR-FRET) Binding Assay of NAMPT
- test.conditions: 6.8 nM NAMPT, 200 nM probe, equilibrated 3 hours, absence of substrates
result.type: pIC50
Keep it numeric: pIC50 is minus log10 of the concentration in mol/L.

compound | target.entity | pIC50
CN(C)CCC(=O)N1CCC(Oc2ccc(NC(=O)C3CN(c4cccnc4)C3)cc2)CC1 [Example 67] | NAMPT (human, recombinant, C-terminally His-tagged) (Homo sapiens, UniProt P43490) | 6.34
CC(C)C(=O)N1CCC(c2ccc(NC(=O)[C@H]3CCN(c4cccnn4)C3)cc2)CC1 [Example 310] | NAMPT (human, recombinant, C-terminally His-tagged) (Homo sapiens, UniProt P43490) | 6.34
O=C(Nc1ccc(C2CCN(C(=O)c3ccsc3)CC2)cc1)C1CN(c2cccnc2)C1 [Example 109] | NAMPT (human, recombinant, C-terminally His-tagged) (Homo sapiens, UniProt P43490) | 8.30

GET /values?readout=pIC50&item= O=C(Nc1ccc(OC2CCN(C(=O)Cc3cccc(F)c3)CC2)cc1)C1CN(c2ccnnc2)C1 [Example 288]
7.35

Subsequent entry: O=C(Nc1ccc(OC2CCN(C(=O)C(F)(F)c3ccccc3)CC2)cc1)C1CN(c2cccnn2)C1 [Example 215]
7.17

Subsequent entry: O=C(Nc1ccc(C2CCN(C(=O)c3ccoc3)CC2)cc1)C1CN(c2cccnc2)C1 [Example 104]
8.92

Subsequent entry: CCOCCC(=O)N1CCC(Oc2ccc(NC(=O)C3CN(c4cccnc4)C3)cc2)CC1 [Example 39]
6.98

Subsequent entry: CC(C)CCC(=O)N1CCC(Oc2ccc(NC(=O)C3CN(c4cccnc4)C3)cc2)CC1 [Example 37]
7.16

Subsequent entry: O=C(Nc1ccc(OC2CCN(C(=O)C3CC3)CC2)cc1)C1CN(c2ccnnc2)C1 [Example 301]
6.84

###

- target.entity: NAMPT (human, recombinant, C-terminally His-tagged) (Homo sapiens)
- method.description: Time-Resolved Fluorescence Resonance Energy Transfer (TR-FRET) Binding Assay of NAMPT
- test.conditions: 6.8 nM NAMPT, 200 nM probe, equilibrated 3 hours, absence of substrates
result.type: pIC50
Keep it numeric: pIC50 is minus log10 of the concentration in mol/L.

Look over these answered cases.
compound | target.entity | pIC50
O=C(Nc1ccc(C2CCN(C(=O)CC3CCCC3)CC2)cc1)[C@H]1CCN(c2cccnc2)C1 [Example 204] | NAMPT (human, recombinant, C-terminally His-tagged) (Homo sapiens) | 6.42
COc1ccccc1C(=O)N1CCC(c2ccc(NC(=O)C3CN(c4cccnn4)C3)cc2)CC1 [Example 345] | NAMPT (human, recombinant, C-terminally His-tagged) (Homo sapiens) | 8.02
Cc1ccncc1N1CC(C(=O)Nc2ccc(OC3CCN(C(=O)CC4CCOCC4)CC3)cc2)C1 [Example 5] | NAMPT (human, recombinant, C-terminally His-tagged) (Homo sapiens) | 6.97
CCOCCC(=O)N1CCC(c2ccc(NC(=O)C3CN(c4cccnn4)C3)cc2)CC1 [Example 380] | NAMPT (human, recombinant, C-terminally His-tagged) (Homo sapiens) | 6.96

Then there is this compound:
GET /values?readout=pIC50&item= CC(C)C(=O)N1CCC(Oc2ccc(NC(=O)C3CN(c4cccnn4)C3)cc2)CC1 [Example 253]
6.87
